The entries below come with measured Percent Effect values attached.
TARGET DESC: Histidine--tRNA ligase (Leishmania infantum)
PROCEDURE DETAILS: Leishmania infantum Histidine tRNA synthetase (LdHisRS)
Assay type: functional
Design: scale not given: in the data most compounds retested in dose-response had high values
CONDITION SUMMARY: 30 µM
In all, about 69,000 compounds went through this assay and about 420 (0.61%) showed an effect of 50% or more. What follows is part of a selection rich in strong results, with near analogues and random picks from the rest.
Numeric answer only, unit % assumed.

# count of solved cases: 3
1) Cn1cc(NC(=O)N2CCC(Cc3ccccc3)CC2)ccc1=O :: 101
2) Cc1noc([C@H]2COC[C@H]3CN(C(=O)Cc4ccc(F)cc4)C[C@H]32)n1 :: 9.62
3) O=C1[C@H]2CN(Cc3ccccc3)C[C@H]2CN1CCN1CCCC1 :: 17.3

Consider COCCn1cc(NC(=O)NC(C)CCc2ccccc2)ccc1=O (stereo unspecified) . Its measured Percent Effect is 98.3

Consider CN1C[C@H]2CN(Cc3cccc(OC(F)(F)F)c3)CCN2C1=O . Its measured Percent Effect is 21.6

Consider CCC1=N[C@@]2(CC[C@@H]3CN(Cc4ccc(F)cc4)C[C@@H]32)C(=O)N1C . Its measured Percent Effect is 8.18

Consider Cn1nc(Cn2ccnc2)c2c1CN(c1ncccn1)C2 . Its measured Percent Effect is 3.51

Consider CN(Cc1ccco1)C(=O)c1ccc(=O)n(C)c1 . Its measured Percent Effect is 14.9

Reference source: ChEMBL document CHEMBL3988442
